Every entry's value here was drawn from patent US8877748B2.

# System: UACC-62
# test-summary: NCI one-dose screening, melanoma UACC-62
# Assay type: cell-based, human
# conditions: 10 μM
Recorded Growth Percent UACC-62 determines the label; the label ranges are band A = under 60%, band B = from 60% up to 90%, band C = 90% and over

[
  {
    "compound": "Cc1ccc(Sc2cc3c(c4nsnc24)C(=O)c2ccccc2C3=O)c(C)c1 [C25]",
    "assay-system": "UACC-62",
    "category": "band C"
  },
  {
    "compound": "CSc1ccc(Sc2cc3c(c4nsnc24)C(=O)c2ccccc2C3=O)cc1 [C43]",
    "assay-system": "UACC-62",
    "category": "band C"
  },
  {
    "compound": "COc1ccc(Sc2cc3c(c4nsnc24)C(=O)c2ccccc2C3=O)cc1 [C41]",
    "assay-system": "UACC-62",
    "category": "band C"
  },
  {
    "compound": "O=C1c2ccccc2C(=O)c2c1cc(SCc1ccccc1)c1nsnc21 [C21]",
    "assay-system": "UACC-62",
    "category": "band A"
  },
  {
    "compound": "Cc1ccccc1Nc1cc2c(c3nsnc13)C(=O)c1ccccc1C2=O [C61]",
    "assay-system": "UACC-62",
    "category": "band A"
  },
  {
    "compound": "CCOc1cccc(Sc2cc3c(c4nsnc24)C(=O)c2ccccc2C3=O)c1 [C50]",
    "assay-system": "UACC-62",
    "category": "band C"
  },
  {
    "compound": "O=C1c2ccccc2C(=O)c2c1cc(Sc1cccc(Cl)c1)c1nsnc21 [C37]",
    "assay-system": "UACC-62",
    "category": "band A"
  },
  {
    "compound": "O=C1c2ccccc2C(=O)c2c1cc(Nc1ccc(Cl)cc1)c1nsnc21 [C60]",
    "assay-system": "UACC-62",
    "category": "band B"
  },
  {
    "compound": "O=C1c2ccccc2C(=O)c2c1cc(Sc1ccccc1)c1nsnc21 [C19]",
    "assay-system": "UACC-62",
    "category": "band B"
  },
  {
    "compound": "O=C1c2ccccc2C(=O)c2c1cc(Sc1ccc(F)cc1F)c1nsnc21 [C39]",
    "assay-system": "UACC-62",
    "category": "band A"
  }
]

====

Parameter: Growth Percent (10 μM). Scope: all listed entries.
# Tested on: A549/ATCC
# test-summary: NCI one-dose screening, non-small cell lung cancer A549/ATCC
# Assay type: cell-based, human
# conditions: A549/ATCC

[
  {
    "entry-smiles": "CC(C)Sc1cc2c(c3nsnc13)C(=O)c1ccccc1C2=O",
    "assay-system": "A549/ATCC",
    "Growth Percent (10 μM)": "−8.14%"
  },
  {
    "entry-smiles": "Cc1ccc(Nc2cc3c(c4nsnc24)C(=O)c2ccccc2C3=O)cc1",
    "assay-system": "A549/ATCC",
    "Growth Percent (10 μM)": "56.25%"
  },
  {
    "entry-smiles": "CN(C)CCNc1cc2c(c3nsnc13)C(=O)c1ccccc1C2=O",
    "assay-system": "A549/ATCC",
    "Growth Percent (10 μM)": "−60.09%"
  },
  {
    "entry-smiles": "O=C1c2ccccc2C(=O)c2c1cc(N1CCCC1)c1nsnc21",
    "assay-system": "A549/ATCC",
    "Growth Percent (10 μM)": "63.51%"
  }
]

====

# System: DU145
# test-summary: NCI one-dose screening, prostate cancer DU145
# Format: cell-based, human
# conditions: DU145, 10 μM

[
  {
    "compound": "CC(C)Sc1cc2c(c3nsnc13)C(=O)c1ccccc1C2=O [C18]",
    "Growth Percent (10 μM)": "6.66%"
  },
  {
    "compound": "O=C1c2ccccc2C(=O)c2c1cc(N1CCCC1)c1nsnc21 [C7]",
    "Growth Percent (10 μM)": "105.08%"
  },
  {
    "compound": "CN(C)CCNc1cc2c(c3nsnc13)C(=O)c1ccccc1C2=O [C8]",
    "Growth Percent (10 μM)": "−95.45%"
  },
  {
    "compound": "Cc1ccc(Nc2cc3c(c4nsnc24)C(=O)c2ccccc2C3=O)cc1 [C64]",
    "Growth Percent (10 μM)": "68.26%"
  }
]

====

Growth Percent (10 μM) values by entry
# System: BT-549
# test-summary: NCI one-dose screening, breast cancer BT-549
# Format: cell-based, human
# conditions: BT-549, 10 μM

[
  {
    "entry-smiles": "CC(C)Sc1cc2c(c3nsnc13)C(=O)c1ccccc1C2=O",
    "output-unit": "%",
    "Growth Percent (10 μM)": 10.84
  },
  {
    "entry-smiles": "O=C1c2ccccc2C(=O)c2c1cc(N1CCCC1)c1nsnc21",
    "output-unit": "%",
    "Growth Percent (10 μM)": 86.83
  },
  {
    "entry-smiles": "CN(C)CCNc1cc2c(c3nsnc13)C(=O)c1ccccc1C2=O",
    "output-unit": "%",
    "Growth Percent (10 μM)": "−99.43"
  },
  {
    "entry-smiles": "Cc1ccc(Nc2cc3c(c4nsnc24)C(=O)c2ccccc2C3=O)cc1",
    "output-unit": "%",
    "Growth Percent (10 μM)": 76.36
  }
]

====

# System: RXF, 393
# test-summary: NCI one-dose screening, renal cancer RXF, 393
# Assay type: cell-based, human
# conditions: RXF 393, 10 μM
The entries below are paired with their reported Growth Percent (10 μM).

[
  {
    "entry-smiles": "CN(C)CCNc1cc2c(c3nsnc13)C(=O)c1ccccc1C2=O",
    "Growth Percent (10 μM) (%)": "−59.58"
  },
  {
    "entry-smiles": "O=C1c2ccccc2C(=O)c2c1cc(N1CCCC1)c1nsnc21",
    "Growth Percent (10 μM) (%)": 97.02
  },
  {
    "entry-smiles": "Cc1ccc(Nc2cc3c(c4nsnc24)C(=O)c2ccccc2C3=O)cc1",
    "Growth Percent (10 μM) (%)": 71.05
  },
  {
    "entry-smiles": "CC(C)Sc1cc2c(c3nsnc13)C(=O)c1ccccc1C2=O",
    "Growth Percent (10 μM) (%)": 13.64
  }
]

====

# Test system: SNB-19
# test-summary: NCI one-dose screening, CNS cancer SNB-19
# Assay type: cell-based, human
# conditions: 10 μM
Entries and their Growth Percent SNB-19 values follow.

[
  {
    "entry-smiles": "O=C1c2ccccc2C(=O)c2c1cc(Sc1ccccc1Br)c1nsnc21",
    "Growth Percent SNB-19 (%)": 71.38
  },
  {
    "entry-smiles": "CSc1ccc(Sc2cc3c(c4nsnc24)C(=O)c2ccccc2C3=O)cc1",
    "Growth Percent SNB-19 (%)": 101.61
  },
  {
    "entry-smiles": "O=C1c2ccccc2C(=O)c2c1cc(N1CCOCC1)c1nsnc21",
    "Growth Percent SNB-19 (%)": 84.82
  },
  {
    "entry-smiles": "Cc1cccc(C)c1Sc1cc2c(c3nsnc13)C(=O)c1ccccc1C2=O",
    "Growth Percent SNB-19 (%)": 94.75
  },
  {
    "entry-smiles": "O=C1c2ccccc2C(=O)c2c1cc(Sc1ccc(F)cc1F)c1nsnc21",
    "Growth Percent SNB-19 (%)": 87.35
  },
  {
    "entry-smiles": "CCSc1cc2c(c3nsnc13)C(=O)c1ccccc1C2=O",
    "Growth Percent SNB-19 (%)": 83.19
  },
  {
    "entry-smiles": "O=C1c2ccccc2C(=O)c2c1cc(Sc1cccc(Cl)c1)c1nsnc21",
    "Growth Percent SNB-19 (%)": 56.88
  },
  {
    "entry-smiles": "O=C1c2ccccc2C(=O)c2c1cc(Nc1ccc(Cl)cc1F)c1nsnc21",
    "Growth Percent SNB-19 (%)": 94.57
  },
  {
    "entry-smiles": "O=C1c2ccccc2C(=O)c2c1cc(N1CCSCC1)c1nsnc21",
    "Growth Percent SNB-19 (%)": 100.15
  },
  {
    "entry-smiles": "O=C1c2ccccc2C(=O)c2c1cc(SCc1ccccc1)c1nsnc21",
    "Growth Percent SNB-19 (%)": 94.26
  }
]

====

# Test system: MCF7
# test-summary: NCI one-dose screening, breast cancer MCF7
# Assay type: cell-based, human
# conditions: 10 μM
quantity: Growth Percent MCF7

[
  {
    "entry-smiles": "COc1cccc(Sc2cc3c(c4nsnc24)C(=O)c2ccccc2C3=O)c1",
    "reported-measurement": "72.77%"
  },
  {
    "entry-smiles": "O=C1c2ccccc2C(=O)c2c1cc(Sc1ccccn1)c1nsnc21",
    "reported-measurement": "68.59%"
  },
  {
    "entry-smiles": "O=C1c2ccccc2C(=O)c2c1cc(N1CCOCC1)c1nsnc21",
    "reported-measurement": "55.12%"
  },
  {
    "entry-smiles": "O=C1c2ccccc2C(=O)c2c1cc(SCc1ccccc1)c1nsnc21",
    "reported-measurement": "56.44%"
  },
  {
    "entry-smiles": "O=C1c2ccccc2C(=O)c2c1cc(Sc1cccc(Cl)c1)c1nsnc21",
    "reported-measurement": "−69.36%"
  },
  {
    "entry-smiles": "O=C1c2ccccc2C(=O)c2c1cc(N1CCSCC1)c1nsnc21",
    "reported-measurement": "49.73%"
  },
  {
    "entry-smiles": "CSc1ccc(Sc2cc3c(c4nsnc24)C(=O)c2ccccc2C3=O)cc1",
    "reported-measurement": "82.87%"
  }
]
